meta.source: patent US5814622A

Let's go through some recorded pIC50 values for human urokinase (u-PA) (Homo sapiens, UniProt P00749) together.
Just so you know, pIC50 here is -log10 of the concentration in molar units; reply with that number alone.

### Prompt State measured pIC50 of the compound Cl.N=C(N)NCCC[C@H](NC(=O)c1ccc(C23CCC(O)(CC2)CC3)cc1)B(O)O [Ex. 12, hydrochloride] with human urokinase (u-PA) (Homo sapiens, UniProt P00749).
### Response 4.81

Next:
### Prompt State measured pIC50 of the compound N=C(N)NCCC[C@H](NC(=O)C1(C(=O)NCc2ccccc2)CCCC1)B(O)O.O=S(=O)(O)c1ccccc1 [Ex. 22, benzenesulfonate] with human urokinase (u-PA) (Homo sapiens, UniProt P00749).
### Response 6.11

### Prompt State measured pIC50 of the compound N=C(N)NCCC[C@H](NC(=O)C1(C(=O)NCCc2ccccc2)CCCC1)B(O)O.O=S(=O)(O)c1ccccc1 [Ex. 83, benzenesulfonate] with human urokinase (u-PA) (Homo sapiens, UniProt P00749).
### Response 5.92

---

target: human urokinase (u-PA) (Homo sapiens)
Here, each record is paired with measured pIC50 data.
Just so you know, pIC50 here is -log10 of the concentration in molar units; reply with that number alone.

### Prompt State measured pIC50 of the compound COC12CCC(c3cccc(C(=O)N[C@@H](CCCNC(=N)N)B(O)O)c3)(CC1)CC2.Cl [Ex. 51, hydrochloride] with human urokinase (u-PA) (Homo sapiens).
### Response 5.25

### Prompt State measured pIC50 of the compound Cl.N=C(N)NCCC[C@H](NC(=O)c1ccc(C23CCC(Cl)(CC2)CC3)cc1)B(O)O [Ex. 6, hydrochloride] with human urokinase (u-PA) (Homo sapiens).
### Response 4.52

### Prompt State measured pIC50 of the compound COc1ccc(CCNC(=O)C2(C(=O)N[C@@H](CCCNC(=N)N)B(O)O)CCCC2)cc1OC with human urokinase (u-PA) (Homo sapiens).
### Response 5.99

### Prompt State measured pIC50 of the compound COc1cccc(CCNC(=O)C2(C(=O)N[C@@H](CCCNC(=N)N)B(O)O)CCCC2)c1.O=S(=O)(O)c1ccccc1 [Ex. 94, benzenesulfonate] with human urokinase (u-PA) (Homo sapiens).
### Response 6.00

---

target: plasminogen tissue activator (t-PA) (Homo sapiens)
Sequence (P00750 23-562 limits assumed): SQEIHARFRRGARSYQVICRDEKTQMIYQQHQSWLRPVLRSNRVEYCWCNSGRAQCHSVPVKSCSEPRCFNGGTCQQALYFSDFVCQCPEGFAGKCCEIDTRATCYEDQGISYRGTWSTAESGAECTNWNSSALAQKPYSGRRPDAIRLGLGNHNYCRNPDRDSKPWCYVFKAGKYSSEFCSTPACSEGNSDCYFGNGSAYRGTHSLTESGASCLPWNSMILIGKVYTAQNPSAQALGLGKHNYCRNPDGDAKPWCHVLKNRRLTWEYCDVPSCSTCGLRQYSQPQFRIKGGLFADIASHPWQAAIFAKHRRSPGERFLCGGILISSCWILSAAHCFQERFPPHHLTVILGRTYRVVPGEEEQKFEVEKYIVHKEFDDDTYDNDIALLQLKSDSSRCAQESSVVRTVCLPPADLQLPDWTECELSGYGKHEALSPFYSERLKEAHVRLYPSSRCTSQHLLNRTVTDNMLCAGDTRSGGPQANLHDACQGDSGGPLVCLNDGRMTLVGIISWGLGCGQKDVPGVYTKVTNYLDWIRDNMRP
measurementKind: IC50 (µM)
Your answer is read as µM, so omit the unit and give the number.

Field: example entries. Status: answers known.
### Prompt State measured IC50 of the molecule COC12CCC(c3cccc(C(=O)N[C@@H](CCCNC(=N)N)B(O)O)c3)(CC1)CC2.Cl [Ex. 51, hydrochloride] with plasminogen tissue activator (t-PA) (Homo sapiens).
### Response 1.54

### Prompt State measured IC50 of the molecule N=C(N)NCCC[C@H](NC(=O)C1(C(=O)NCCc2ccccc2)CCCC1)B(O)O.O=S(=O)(O)c1ccccc1 [Ex. 83, benzenesulfonate] with plasminogen tissue activator (t-PA) (Homo sapiens).
### Response 1.56

### Prompt State measured IC50 of the molecule Cl.N=C(N)NCCC[C@H](NC(=O)c1ccc(C23CCC(O)(CC2)CC3)cc1)B(O)O [Ex. 12, hydrochloride] with plasminogen tissue activator (t-PA) (Homo sapiens).
### Response 0.093

Now look at this entry.
### Prompt State measured IC50 of the molecule N=C(N)NCCC[C@H](NC(=O)C1(C(=O)NCc2ccccc2)CCCC1)B(O)O.O=S(=O)(O)c1ccccc1 [Ex. 22, benzenesulfonate] with plasminogen tissue activator (t-PA) (Homo sapiens).
### Response 1.35
